These entries and their values trace back to patent US8987273B2.

SYSTEM: His-tagged human recombinant kinase full-length Akt2 (Homo sapiens (Human))
Sequence (P31751 whole entry): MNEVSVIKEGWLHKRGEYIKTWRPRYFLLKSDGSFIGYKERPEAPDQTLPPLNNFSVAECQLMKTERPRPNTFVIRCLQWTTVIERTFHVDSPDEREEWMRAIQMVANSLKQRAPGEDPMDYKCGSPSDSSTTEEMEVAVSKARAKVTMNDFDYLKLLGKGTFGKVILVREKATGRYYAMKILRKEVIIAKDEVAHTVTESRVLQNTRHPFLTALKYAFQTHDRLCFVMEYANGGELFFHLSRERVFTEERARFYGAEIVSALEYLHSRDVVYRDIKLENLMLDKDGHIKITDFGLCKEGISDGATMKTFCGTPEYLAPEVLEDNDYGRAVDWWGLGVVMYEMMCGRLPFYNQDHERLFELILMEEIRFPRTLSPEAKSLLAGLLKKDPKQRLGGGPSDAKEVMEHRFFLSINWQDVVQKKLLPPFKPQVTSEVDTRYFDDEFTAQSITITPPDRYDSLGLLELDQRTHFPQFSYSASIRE
METHOD: Akt2 kinase assay (TR-FRET)
STUDY CONDITIONS: 10 μM ATP; median
Where a name gives a salt, the structure may show the parent alone.
Returns: string. Value is Yes if measured IC50 is below 0.3 µM, and No if it is greater than or equal to it.

Consider the worked cases shown below.
COMPOUND: COC(=O)c1cccc(-c2cnc3cc(-c4ccccc4)c(-c4ccc(C5(N)CCC5)cc4)nn23)c1 [Example 4-2]
SYSTEM: His-tagged human recombinant kinase full-length Akt2 (Homo sapiens (Human))
DISCRETE LABEL: Yes

COMPOUND: NC1(c2ccc(-c3nn4c(-c5ccc(CO)cc5)cnc4cc3-c3ccccc3)cc2)CCC1 [Example 4-6]
SYSTEM: His-tagged human recombinant kinase full-length Akt2 (Homo sapiens (Human))
DISCRETE LABEL: Yes

COMPOUND: Cc1cn2nc(-c3ccc(C4(N)CCC4)cc3)c(-c3ccccc3)cc2n1 [Example 1-1, hydrochloride]
SYSTEM: His-tagged human recombinant kinase full-length Akt2 (Homo sapiens (Human))
DISCRETE LABEL: No

COMPOUND: COC(=O)/C=C/c1c(C)nc2cc(-c3ccccc3)c(-c3ccc(C4(N)CCC4)cc3)nn12 [Example 11-0]
SYSTEM: His-tagged human recombinant kinase full-length Akt2 (Homo sapiens (Human))
DISCRETE LABEL: No

COMPOUND: Cc1nc2cc(-c3ccccc3)c(-c3ccc(C4(N)CCC4)cc3)nn2c1-c1ccc(F)c(CO)c1 [Example 5-1]
SYSTEM: His-tagged human recombinant kinase full-length Akt2 (Homo sapiens (Human))
DISCRETE LABEL: No

COMPOUND: Cc1nc2cc(-c3ccccc3)c(-c3ccc(C4(N)CCC4)cc3)nn2c1-c1cccc(C(N)=O)c1 [Example 5-0]
SYSTEM: His-tagged human recombinant kinase full-length Akt2 (Homo sapiens (Human))
DISCRETE LABEL: No

Now consider a different compound.
Query string: Hello, I'm reviewing records and need to know if IC50 of Cc1ccc(-c2cnc3cc(-c4ccccc4)c(-c4ccc(C5(N)CCC5)cc4)nn23)cc1 [Example 4-4] is below 0.3 µM. Could you check?
Result string: Yes

----------
Each record here notes measured IC50.
SYSTEM: His-tagged human recombinant kinase full-length Akt1 (Homo sapiens (Human), UniProt P31749)
Sequence (P31749 whole entry): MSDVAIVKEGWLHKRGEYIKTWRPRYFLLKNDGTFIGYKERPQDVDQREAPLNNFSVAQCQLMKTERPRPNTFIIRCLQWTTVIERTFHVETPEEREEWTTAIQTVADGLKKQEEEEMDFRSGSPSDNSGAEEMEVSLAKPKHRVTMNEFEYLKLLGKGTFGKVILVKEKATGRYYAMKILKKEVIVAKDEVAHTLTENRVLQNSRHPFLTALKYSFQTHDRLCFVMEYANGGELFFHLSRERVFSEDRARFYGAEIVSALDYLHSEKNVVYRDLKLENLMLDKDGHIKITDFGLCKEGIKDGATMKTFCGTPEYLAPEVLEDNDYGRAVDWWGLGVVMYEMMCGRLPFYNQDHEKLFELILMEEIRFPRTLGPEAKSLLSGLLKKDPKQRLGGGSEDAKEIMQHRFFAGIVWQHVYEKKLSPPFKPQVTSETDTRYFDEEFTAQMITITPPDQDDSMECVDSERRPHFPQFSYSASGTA
METHOD: Akt1 kinase assay (TR-FRET)
STUDY CONDITIONS: 10 μM ATP; median
Method: Akt1 inhibitory activity of compounds of the present invention was quantified employing the Akt1 TR-FRET assay as described in the following paragraphs. […] The resulting mixture was incubated 1 h at 22° C. to allow the binding of the biotinylated phosphorylated peptide to the streptavidine-XL665 and the antibodies. Subsequently the amount of phosphorylated substrate was evaluated by measurement of the resonance energy transfer from the anti-mouse-IgG-Eu-Chelate to the streptavidine-XL665. […]
Counter-ions that a name gives are not always drawn.

Some molecules with known IC50 results, for comparison:
MOLECULE: NC1(c2ccc(-c3nn4c(-c5ccc(F)cc5)c(Cl)nc4cc3-c3ccccc3)cc2)CCC1 [Example 7-0]
IC50: 99 nM
//
MOLECULE: NC1(c2ccc(-c3nn4c(-c5ccc(F)c(CO)c5)cnc4cc3-c3ccccc3)cc2)CCC1 [Example 4-9, hydrochloride]
IC50: 9 nM
//
MOLECULE: NC1(c2ccc(-c3nn4c(-c5ccc6cn[nH]c6c5)cnc4cc3-c3ccccc3)cc2)CCC1 [Example 4-16]
IC50: 11 nM
//
MOLECULE: NC1(c2ccc(-c3nn4c(-c5cn[nH]c5)cnc4cc3-c3ccccc3)cc2)CCC1 [Example 4-12]
IC50: 9 nM

Query string: Which value of IC50 has been reported for NC1(c2ccc(-c3nn4c(-c5ccc(S(N)(=O)=O)cc5)cnc4cc3-c3ccccc3)cc2)CCC1 [Example 4-7] in the records?
Result string: 47 nM

Query string: Lookup COC(=O)c1cccc(-c2cnc3cc(-c4ccccc4)c(-c4ccc(C5(N)CCC5)cc4)nn23)c1 [Example 4-2]
Result string: 4 nM
